Endpoint: pIC50. System: UniProt:Q06187. Items follow.
Sequence (Q06187 whole entry): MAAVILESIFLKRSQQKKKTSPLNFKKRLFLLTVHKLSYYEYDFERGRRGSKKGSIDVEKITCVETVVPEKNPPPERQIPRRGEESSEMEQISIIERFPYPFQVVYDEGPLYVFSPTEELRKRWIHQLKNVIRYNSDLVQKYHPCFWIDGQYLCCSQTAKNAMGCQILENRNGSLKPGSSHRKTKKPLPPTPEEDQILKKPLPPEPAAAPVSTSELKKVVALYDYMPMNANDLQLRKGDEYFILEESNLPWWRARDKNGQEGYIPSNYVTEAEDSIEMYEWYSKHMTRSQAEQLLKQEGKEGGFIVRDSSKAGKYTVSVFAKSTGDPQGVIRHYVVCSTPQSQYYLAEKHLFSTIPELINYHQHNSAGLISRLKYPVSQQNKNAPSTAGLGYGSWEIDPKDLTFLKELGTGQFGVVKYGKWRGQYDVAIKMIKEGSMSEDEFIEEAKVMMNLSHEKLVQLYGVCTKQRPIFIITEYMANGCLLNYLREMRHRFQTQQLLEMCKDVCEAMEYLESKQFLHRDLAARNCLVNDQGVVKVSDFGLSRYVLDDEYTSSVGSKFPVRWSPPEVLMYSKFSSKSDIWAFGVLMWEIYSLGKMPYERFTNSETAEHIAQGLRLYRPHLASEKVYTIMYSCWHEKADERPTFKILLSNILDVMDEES
pIC50: −log10 of the molar value.

>  <compound>
COc1cccc(Oc2ccc(-c3nc(C4CCC(O)CC4)n4ccnc(N)c34)cc2)c1F (stereo not drawn) [Compound 2]

>  <pIC50>
≥ 8.00

$$$$
>  <compound>
Nc1nccn2c(C3CCCC(O)C3)nc(-c3ccc(Oc4ccccc4)cc3)c12 (stereo not drawn) [Compound 1]

>  <pIC50>
≥ 8.00

$$$$
>  <compound>
Nc1nccn2c(C3CCC(O)CC3)nc(-c3ccc(Oc4cccc(Cl)c4)cc3)c12 (stereo not drawn) [Compound 7]

>  <pIC50>
7.00 to 8.00

$$$$
